molecular target: rat adrenergic α1B receptor (Rattus norvegicus, UniProt P15823); construct: rat adrenergic α1B receptor obtained from Wistar Rat liver; from tissue; host or cells: Wistar rat liver; assay: Radioligand binding, adrenergic α1B ([3H]Prazosin); set-up: species or system Wistar Rat; details: compound at 0.1 μM, repeat datapoints each shown, 0.1 µM
Sequence (P15823 whole entry): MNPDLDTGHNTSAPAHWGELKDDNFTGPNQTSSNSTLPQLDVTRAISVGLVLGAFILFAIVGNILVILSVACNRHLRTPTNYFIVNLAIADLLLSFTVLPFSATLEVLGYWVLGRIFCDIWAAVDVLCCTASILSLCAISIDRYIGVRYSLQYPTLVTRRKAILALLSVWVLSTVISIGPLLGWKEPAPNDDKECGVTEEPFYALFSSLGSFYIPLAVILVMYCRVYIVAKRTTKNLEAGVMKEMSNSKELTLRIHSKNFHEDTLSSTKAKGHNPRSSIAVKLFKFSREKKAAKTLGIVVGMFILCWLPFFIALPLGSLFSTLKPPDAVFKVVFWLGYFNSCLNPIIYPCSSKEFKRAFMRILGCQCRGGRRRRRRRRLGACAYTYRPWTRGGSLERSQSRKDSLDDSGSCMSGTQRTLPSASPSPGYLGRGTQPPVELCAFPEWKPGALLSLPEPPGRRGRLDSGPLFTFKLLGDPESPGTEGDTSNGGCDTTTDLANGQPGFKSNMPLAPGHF
MEASUREMENT_NAME: Percentage inhibition of ligand binding, Adrenergic α1B (0.1 μM) (%)

a: CN1CCc2c(c3cccc(Br)c3n2CC(O)c2ccncc2)C1 (single isomer, unassigned) [48a]
b: Cc1ccc2c(c1)c1c(n2CC(C)(O)c2ccc[n+]([O-])c2)CCN(C)C1 (single isomer, unassigned) [56b]
c: Cc1ccc2c(c1)c1c(n2CC(O)c2cccnc2)CCN(CCO)C1 (single isomer, unassigned) [21b]
d: Cc1ccc2c(c1)c1c(n2CC(O)c2ccncc2)C(C)N2CCC1C2 (single isomer, unassigned) [38a]
Q: Consider the molecules listed above. Rank them by Percentage inhibition of ligand binding, Adrenergic α1B (0.1 μM) in ascending numerical order. Form entry: labels listed in requested order.
Result: c, b, d, a
(c: −2%, b: 6%, d: 11%, a: 16%)
